test system: A2780; assay: Efficacy screening assay; format: cell-based; conditions: Homo sapiens, A2780, 72 h, A2780, ovary, read-out: EC50
MEASURED METRIC: pEC50
Bear in mind: pEC50 is minus log10 of a mol/L concentration; give just that figure.

Consider the molecule `CN(C)Cc1ccc(S(=O)(=O)n2ccc(/C=C/C(=O)NO)c2)cc1` and give its measured pEC50.
6.05

---

system: MCF7; assay: Efficacy screening assay; type: cell-based; details: MCF7, breast; 72 h; read-out: EC50
MEASURED METRIC: pEC50
Bear in mind: pEC50 is minus log10 of a mol/L concentration; give just that figure.

Consider the compound `CN(C)Cc1ccc(S(=O)(=O)n2ccc(/C=C/C(=O)NO)c2)cc1` and give its measured pEC50.
5.77
